Study Target: PI3Kδ (Homo sapiens, UniProt O00329)
Sequence (O00329 whole entry): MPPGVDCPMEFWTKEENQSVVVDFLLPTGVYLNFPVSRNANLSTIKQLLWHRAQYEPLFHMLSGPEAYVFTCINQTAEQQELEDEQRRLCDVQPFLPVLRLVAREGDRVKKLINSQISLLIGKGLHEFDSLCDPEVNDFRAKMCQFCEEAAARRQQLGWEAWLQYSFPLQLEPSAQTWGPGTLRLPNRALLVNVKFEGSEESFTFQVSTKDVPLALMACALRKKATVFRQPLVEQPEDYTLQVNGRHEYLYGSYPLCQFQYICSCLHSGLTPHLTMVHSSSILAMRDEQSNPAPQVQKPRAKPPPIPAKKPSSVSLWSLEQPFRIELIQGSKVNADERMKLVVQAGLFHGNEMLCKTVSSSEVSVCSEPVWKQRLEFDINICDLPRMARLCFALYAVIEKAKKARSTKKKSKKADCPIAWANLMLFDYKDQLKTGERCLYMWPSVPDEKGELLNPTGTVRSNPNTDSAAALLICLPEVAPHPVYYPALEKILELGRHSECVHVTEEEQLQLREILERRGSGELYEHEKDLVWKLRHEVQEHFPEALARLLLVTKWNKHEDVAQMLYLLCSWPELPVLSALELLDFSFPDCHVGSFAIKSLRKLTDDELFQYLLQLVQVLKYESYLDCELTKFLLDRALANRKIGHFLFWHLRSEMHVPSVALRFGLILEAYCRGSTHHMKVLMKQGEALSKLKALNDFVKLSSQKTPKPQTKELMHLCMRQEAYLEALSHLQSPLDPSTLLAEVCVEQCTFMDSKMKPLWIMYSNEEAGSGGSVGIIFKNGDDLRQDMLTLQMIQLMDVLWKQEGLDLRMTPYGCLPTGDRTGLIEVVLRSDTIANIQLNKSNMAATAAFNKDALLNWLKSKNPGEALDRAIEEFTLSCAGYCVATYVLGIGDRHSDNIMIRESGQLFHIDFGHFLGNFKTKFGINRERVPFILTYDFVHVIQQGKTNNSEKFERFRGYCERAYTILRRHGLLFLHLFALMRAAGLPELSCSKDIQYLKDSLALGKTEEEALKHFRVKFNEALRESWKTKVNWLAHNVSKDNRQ
Sequence (P27986 whole entry partner): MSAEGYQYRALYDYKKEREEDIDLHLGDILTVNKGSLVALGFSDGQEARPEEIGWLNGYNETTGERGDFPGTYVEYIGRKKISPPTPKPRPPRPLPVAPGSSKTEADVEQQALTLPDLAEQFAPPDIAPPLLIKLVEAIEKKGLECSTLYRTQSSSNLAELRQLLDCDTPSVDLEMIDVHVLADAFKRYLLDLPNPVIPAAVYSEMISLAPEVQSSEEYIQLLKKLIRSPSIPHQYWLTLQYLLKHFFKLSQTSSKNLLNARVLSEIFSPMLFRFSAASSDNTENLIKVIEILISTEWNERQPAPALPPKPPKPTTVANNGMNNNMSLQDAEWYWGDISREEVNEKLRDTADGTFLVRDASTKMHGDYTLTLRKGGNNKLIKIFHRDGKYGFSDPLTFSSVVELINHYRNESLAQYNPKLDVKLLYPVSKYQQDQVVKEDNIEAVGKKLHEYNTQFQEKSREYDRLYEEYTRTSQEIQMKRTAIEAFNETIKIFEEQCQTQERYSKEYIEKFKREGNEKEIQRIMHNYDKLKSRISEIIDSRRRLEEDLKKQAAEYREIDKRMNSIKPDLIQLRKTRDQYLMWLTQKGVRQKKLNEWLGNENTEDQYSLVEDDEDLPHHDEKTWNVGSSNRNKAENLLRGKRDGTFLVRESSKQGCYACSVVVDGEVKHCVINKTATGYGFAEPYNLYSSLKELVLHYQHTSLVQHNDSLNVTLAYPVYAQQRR
Test Protocol: ADP-Glo cell-free PI3K kinase activity assay
Readout: IC50 (µM)
Give a bare numeral; the unit µM is implied.

Looking up O=c1cc(N2CCOCC2)oc2c(-c3ccccc3)cccc12 [LY294002, reference compound] , I see its IC50 listed as 0.78

* * *

Study Target: PI3Kδ (Homo sapiens)
Test Protocol: ADP-Glo cell-free PI3K kinase activity assay
Condition Notes: read-out: IC50 PI3Kδ; Table 4
pIC50: −log10 of the molar value.
Readout: pIC50

Looking up CC(=O)c1c(C)n(-c2ccc(C)cc2)c2ccc(OCC(O)CNCc3ccc(Cl)cc3)cc12 (stereo not shown) , I see its pIC50 listed as < 4.70
